- System Name: T1, O8
- T1 chain: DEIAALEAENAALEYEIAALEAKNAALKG
- Assay Overview: two-hybrid library CCNG1;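 also: natural log of median RNA to DNA barcode read ratio; higher means stronger binding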
# YES = interaction score below -0.6 (exclusive); NO = interaction score at/above -0.6

Please review the following examples before continuing.
1) DKIAALKAKNAALKYKIAALKAENAALEG [O7]: NO
2) DKIAALKAEIAALEYKNAALKAKNAALKG [O4]: YES
3) DENAALEAKNAALKYKIAALKAKIAALKG [O2]: YES

Kindly consider the entry below.
Prompt line: I'd appreciate it if you could check whether DEIAALEAKIAALKYKNAALKAKNAALKG [O12] has interaction score smaller than -0.6.
Response line: YES
